All figures here come from patent US20210260055A1.

test: Toxicokinetic assessment of systemic exposure in minipigs following dermal administration; type: in vivo; conditions: male, Göttingen, minipig, plasma, topical or ocular, 12 mg/kg/day, Day 28, Male, 12 mg/kg/day, 0.6% gel, read-out: AUC0-24
Measurement label: AUC(0-t)

Q) Quick one: AUC(0-t) for Cc1nc(C)c(-c2ccc([C@H]3CC[C@H](CC(=O)O)CC3)cc2)nc1C(N)=O [DMVT-503] ?
A) 22300 ng·h/mL

###

assay: Toxicokinetic assessment of systemic exposure in minipigs following dermal administration; assay type: in vivo; details: male, Göttingen, minipig, plasma, topical or ocular, 12 mg/kg/day, Day 1, Male, 12 mg/kg/day, 0.6% gel
Measurement label: Cmax
Answer by giving the amount and then stating its unit.

Q) Quick one: Cmax for Cc1nc(C)c(-c2ccc([C@H]3CC[C@H](CC(=O)O)CC3)cc2)nc1C(N)=O ?
A) 103 ng/mL

###

experiment: Toxicokinetic assessment of systemic exposure in minipigs following dermal administration; type: in vivo; details: female, Göttingen, minipig, plasma, topical or ocular, 2 mg/kg/day, Day 1, Female, 2 mg/kg/day, 0.1% gel
Measurement label: Cmax (ng/mL)
Please respond with the number in ng/mL and leave the unit unwritten.

Q) Quick one: Cmax for Cc1nc(C)c(-c2ccc([C@H]3CC[C@H](CC(=O)O)CC3)cc2)nc1C(N)=O [DMVT-503] ?
A) 37.3

###

test: Toxicokinetic assessment of systemic exposure in minipigs following dermal administration; type: in vivo; conditions: male, Göttingen, minipig, plasma, topical or ocular, 12 mg/kg/day, Median (Min-Max), Day 28, Male, 12 mg/kg/day, 0.6% gel
Measurement label: Tmax
Answer by giving the amount and then stating its unit.

Q) Quick one: Tmax for Cc1nc(C)c(-c2ccc([C@H]3CC[C@H](CC(=O)O)CC3)cc2)nc1C(N)=O ?
A) 1 h

###

Test: Toxicokinetic assessment of systemic exposure in minipigs following dermal administration
Type: in vivo
Conditions: male, Göttingen, minipig, plasma, topical or ocular, 6 mg/kg/day, Median (Min-Max), Day 28, Male, 6 mg/kg/day, 0.3% gel
Method: Male and female göttingen minipigs were dosed daily for a period of 28 days in a GLP toxicity study with DMVT-503 gel at 0.1%, 0.3%, and 0.6%. DMVT-503 concentrations were quantitated using a validated LC-MS/MS method and toxicokinetic parameters were calculated for all dosing groups, sexes, and sampling occasions. The systemic exposures observed in this study are supportive of the effective delivery of DMVT-503 into and through minipig skin by the gel formulations tested. […]
Measurement label: Tmax
Answer by giving the amount and then stating its unit.

Q) Quick one: Tmax for Cc1nc(C)c(-c2ccc([C@H]3CC[C@H](CC(=O)O)CC3)cc2)nc1C(N)=O ?
A) 2 h

###

experiment: Toxicokinetic assessment of systemic exposure in minipigs following dermal administration; format: in vivo; conditions: female, Göttingen, minipig, plasma, topical or ocular, 12 mg/kg/day, Day 28, Female, 12 mg/kg/day, 0.6% gel
Measurement label: Cmax (ng/mL)
Please respond with the number in ng/mL and leave the unit unwritten.

Q) Quick one: Cmax for Cc1nc(C)c(-c2ccc([C@H]3CC[C@H](CC(=O)O)CC3)cc2)nc1C(N)=O ?
A) 1370

###

assay: Toxicokinetic assessment of systemic exposure in minipigs following dermal administration; assay type: in vivo; conditions: male, Göttingen, minipig, plasma, topical or ocular, 6 mg/kg/day, Day 1, Male, 6 mg/kg/day, 0.3% gel, read-out: AUC0-24
Measurement label: AUC(0-t) (ng·h/mL)
Please respond with the number in ng·h/mL and leave the unit unwritten.

Q) Quick one: AUC(0-t) for Cc1nc(C)c(-c2ccc([C@H]3CC[C@H](CC(=O)O)CC3)cc2)nc1C(N)=O [DMVT-503] ?
A) 478
